test: Hill coefficient of the compound; assay type: ADME
Parameter measured: Hill coefficient
Response field accepts a number only; no unit should be typed.

| Molecule | Hill coefficient |
| --- | --- |
| NCCc1c[nH]c2ccc(O)cc12 | 1.04 |
| CCCN(CCC)C1CCc2cccc(O)c2C1 (racemic) | 0.83 |
| CCCN(CCC)C1CCc2ccc(O)cc2C1 (racemic) | 0.82 |
| CCCN(C/C=C/I)C1CCc2ccc(O)cc2C1 (racemic) | 0.9 |
| O=C(c1ccc(F)cc1)C1CCN(CCn2c(=O)[nH]c3ccccc3c2=O)CC1 | 1.04 |

Data request: Please look up its Hill coefficient: CCCN(C/C=C/I)C1CCc2cccc(O)c2C1 (racemic)
Data returned: 0.85

Data request: Please look up its Hill coefficient: CC(C)NCC(O)COc1cccc2ccccc12 (racemic)
Data returned: 0.99

Data request: Please look up its Hill coefficient: O=C(CCCN1CCC2(CC1)C(=O)NCN2c1ccccc1)c1ccc(F)cc1
Data returned: 0.86

---

Reported Ki values for a set of compounds
Biological target: 5-hydroxytryptamine receptor 1A (Rattus norvegicus, UniProt P19327)
Sequence (P19327 whole entry): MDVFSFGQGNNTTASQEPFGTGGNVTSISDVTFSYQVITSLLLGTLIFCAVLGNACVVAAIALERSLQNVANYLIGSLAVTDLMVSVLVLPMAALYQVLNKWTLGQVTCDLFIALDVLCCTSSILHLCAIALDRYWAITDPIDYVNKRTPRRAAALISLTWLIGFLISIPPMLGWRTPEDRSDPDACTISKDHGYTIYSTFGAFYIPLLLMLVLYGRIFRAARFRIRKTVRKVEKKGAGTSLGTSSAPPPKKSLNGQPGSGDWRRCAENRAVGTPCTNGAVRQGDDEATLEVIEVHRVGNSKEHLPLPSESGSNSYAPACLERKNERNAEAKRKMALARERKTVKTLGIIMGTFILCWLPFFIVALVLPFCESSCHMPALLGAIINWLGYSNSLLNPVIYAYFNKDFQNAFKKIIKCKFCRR
Your answer is read as nM, so omit the unit and give the number.

# example entries with known answers
| Compound | Target system | Ki, nM |
| --- | --- | --- |
| O=C(CCCN1CCC2(CC1)C(=O)NCN2c1ccccc1)c1ccc(F)cc1 [SPIPERONE] | 5-hydroxytryptamine receptor 1A (Rattus norvegicus, UniProt P19327) | 602 |
| CCCN(CCC)C1CCc2ccc(O)cc2C1 (racemic) | 5-hydroxytryptamine receptor 1A (Rattus norvegicus, UniProt P19327) | 72.7 |

Continue with the compound presented below.
Data request: Please look up its Ki: CCCN(C/C=C/I)C1CCc2cccc(O)c2C1 (racemic)
Data returned: 0.3

---

species on record: Rattus norvegicus; assay: Inhibitory activity against (125I)-(R,S)-trans-8-OH-PIPAT binding to the rat hippocampal homogenate
Parameter measured: Ki
In your response, the unit should come after the numeric value.

Data request: Please look up its Ki: CCCN(CCC)C1CCc2cccc(O)c2C1 (racemic)
Data returned: 0.91 nM
